B1: PhoQ; a variant is named by its letters at X, in order, P23837 (parent)
chain: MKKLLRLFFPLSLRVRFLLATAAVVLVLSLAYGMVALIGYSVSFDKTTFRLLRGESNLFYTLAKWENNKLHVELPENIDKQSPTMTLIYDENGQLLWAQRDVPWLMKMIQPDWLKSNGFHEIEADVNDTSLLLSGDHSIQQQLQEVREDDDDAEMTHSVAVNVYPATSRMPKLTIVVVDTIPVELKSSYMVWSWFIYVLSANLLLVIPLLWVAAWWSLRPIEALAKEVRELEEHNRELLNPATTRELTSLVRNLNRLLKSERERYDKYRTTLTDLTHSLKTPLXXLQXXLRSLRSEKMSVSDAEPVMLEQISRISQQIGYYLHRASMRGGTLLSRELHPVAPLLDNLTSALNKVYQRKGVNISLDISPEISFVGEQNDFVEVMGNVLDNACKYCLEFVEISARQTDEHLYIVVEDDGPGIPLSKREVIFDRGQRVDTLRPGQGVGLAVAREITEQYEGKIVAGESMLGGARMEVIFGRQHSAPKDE

# Variants of: B1
# TEST DESCRIPTION: enrichment ratio after two sorts for PhoP signalling (ratio (wild type AVST 3.29)); higher = more functional
# TEST SETTINGS: with PhoP (E. coli)
In all, about 140,000 sequences were measured (“enrichment ratio after two sorts for PhoP signalling”: median about 0, highest 2% from about 11 on). The sample holds the highest values, similar sequences and a random draw of the others, so the mix is not that of the screen.
OBSERVED PROPERTY: enrichment ratio

HQTQ ... ≤ 0.25
ADMG ... ≤ 0.25
TFLR ... 0.372
MFAS ... ≤ 0.25
PCCG ... ≤ 0.25
MEMS ... 63.4
ICAS ... ≤ 0.25
YYHV ... ≤ 0.25
AKTI ... 23.6
KKTI ... ≤ 0.25
WTPP ... ≤ 0.25
AKTD ... ≤ 0.25
QNYF ... ≤ 0.25
MEMW ... ≤ 0.25
AITC ... 19
EVIK ... ≤ 0.25
AMYD ... ≤ 0.25
VCAS ... ≤ 0.25
AMGH ... 51
AIMG ... 6.65
MKMV ... ≤ 0.25
LATF ... ≤ 0.25
